Recorded pIC50 values for a group of molecules are listed next.
System name: Polyphenol oxidase 2 (Agaricus bisporus, UniProt O42713)
Sequence (O42713 whole entry): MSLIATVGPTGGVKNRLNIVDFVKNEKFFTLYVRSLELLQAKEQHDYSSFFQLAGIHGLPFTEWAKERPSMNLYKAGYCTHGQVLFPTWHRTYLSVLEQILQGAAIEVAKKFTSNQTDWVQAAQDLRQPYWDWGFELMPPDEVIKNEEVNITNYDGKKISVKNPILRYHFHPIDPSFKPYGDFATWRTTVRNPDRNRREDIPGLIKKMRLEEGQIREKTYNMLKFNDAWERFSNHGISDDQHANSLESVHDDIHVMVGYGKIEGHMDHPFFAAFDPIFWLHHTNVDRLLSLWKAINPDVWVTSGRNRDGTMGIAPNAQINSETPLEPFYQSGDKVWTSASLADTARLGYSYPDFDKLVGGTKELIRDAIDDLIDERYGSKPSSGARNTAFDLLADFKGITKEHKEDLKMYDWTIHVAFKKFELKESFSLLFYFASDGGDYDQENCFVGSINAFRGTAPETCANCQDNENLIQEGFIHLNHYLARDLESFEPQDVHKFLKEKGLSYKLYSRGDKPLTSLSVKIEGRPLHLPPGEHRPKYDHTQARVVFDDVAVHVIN
Lab note — pIC50 values are minus log10 of concentrations in M.

-- ask Identify measured pIC50 associated with Cc1ccccc1C=O [o-Tolualdehyde, a]
-- reply 2.59

-- ask Complete the entry with pIC50 for CC(C)c1ccc(C=O)cc1 [p-Isopropylbenzaldehyde, f]
-- reply 4.12

-- ask Supply reported pIC50 belonging to this molecule: CCCCCc1ccc(C=O)cc1 [p-Pentylbenzaldehyde, i]
-- reply 4.87

-- ask Specify reported pIC50 for the molecule shown: Cc1cccc(C=O)c1 [m-Tolualdehyde, b]
-- reply 3.35

-- ask Report measured pIC50; entry is Cc1ccc(C=O)cc1 [4-Methylbenzaldehyde]
-- reply 3.92

-- ask Return pIC50 for the following molecule: CCCCCCCCc1ccc(C=O)cc1 [p-Octylbenzaldehyde, l]
-- reply 5.00

Values compiled from BindingDB's records for doi:10.1080/14756360310001613094.
